assay: activity coefficient (dimensionless); of the first substance listed, at infinite dilution; xn = mol fraction of the nth substance listed; details: 353.15 K; 101 kPa; Liquid; Chromatography; x1 = 0
What activity coefficient was measured for each of the following?
One number for each entry.

Before answering, review these 2 worked examples.
- C1CCCC1 [cyclopentane] + CCCCCCCCCCCCCC[P+](CCCCCC)(CCCCCC)CCCCCC.O=S(=O)([N-]S(=O)(=O)C(F)(F)F)C(F)(F)F: 0.713
- C#CCCC [1-pentyne] + CCCCCCCCCCCCCC[P+](CCCCCC)(CCCCCC)CCCCCC.O=S(=O)([N-]S(=O)(=O)C(F)(F)F)C(F)(F)F: 0.663

Switching to the query record.
Give activity coefficient for the following molecule: C1CCCCCCC1 [cyclooctane] + CCCCCCCCCCCCCC[P+](CCCCCC)(CCCCCC)CCCCCC.O=S(=O)([N-]S(=O)(=O)C(F)(F)F)C(F)(F)F
1.07

* * *

assay: activity coefficient (dimensionless); of the first substance listed, at infinite dilution; xn = mol fraction of the nth substance listed; settings: 313.15 K; 101 kPa; Liquid; Chromatography; x1 = 0
So basically, if activity coefficient comes in under 1 it's 1.0, and if it's 1 or more it's 0.0.

Reference set (3 entries):
- C1CCCCC1 [cyclohexane] + CCCCCCCCCCCCCC[P+](CCCCCC)(CCCCCC)CCCCCC.O=S(=O)([N-]S(=O)(=O)C(F)(F)F)C(F)(F)F: 1.0
- CCC(C)=O [butanone] + CCCCCCCCCCCCCC[P+](CCCCCC)(CCCCCC)CCCCCC.O=S(=O)([N-]S(=O)(=O)C(F)(F)F)C(F)(F)F: 1.0
- CO [methanol] + CCCCCCCCCCCCCC[P+](CCCCCC)(CCCCCC)CCCCCC.O=S(=O)([N-]S(=O)(=O)C(F)(F)F)C(F)(F)F: 0.0

Take the molecule C=CCCCCC [1-heptene] + CCCCCCCCCCCCCC[P+](CCCCCC)(CCCCCC)CCCCCC.O=S(=O)([N-]S(=O)(=O)C(F)(F)F)C(F)(F)F and say whether its activity coefficient is less than 1.
0.0

Determine whether this molecule shows activity coefficient lower than 1 (ties excluded): CCCCCCCCC [nonane] + CCCCCCCCCCCCCC[P+](CCCCCC)(CCCCCC)CCCCCC.O=S(=O)([N-]S(=O)(=O)C(F)(F)F)C(F)(F)F
0.0

Confirm or reject: activity coefficient of C1CCCCCC1 [cycloheptane] + CCCCCCCCCCCCCC[P+](CCCCCC)(CCCCCC)CCCCCC.O=S(=O)([N-]S(=O)(=O)C(F)(F)F)C(F)(F)F lies strictly below 1
1.0

* * *

assay: activity coefficient (dimensionless); of the first substance listed, at infinite dilution; xn = mol fraction of the nth substance listed; conditions: 373.15 K; 101 kPa; Liquid; Chromatography; x1 = 0
QUANTITY NAME: activity coefficient
One number for each entry.

- C=CCCCCC [1-heptene] + CCCCCCCCCCCCCC[P+](CCCCCC)(CCCCCC)CCCCCC.O=S(=O)([N-]S(=O)(=O)C(F)(F)F)C(F)(F)F: 1.12
- C1CCCCCC1 [cycloheptane] + CCCCCCCCCCCCCC[P+](CCCCCC)(CCCCCC)CCCCCC.O=S(=O)([N-]S(=O)(=O)C(F)(F)F)C(F)(F)F: 0.905

Could you now consider this next molecule?
# return recorded activity coefficient for entry CCCCCC [hexane] + CCCCCCCCCCCCCC[P+](CCCCCC)(CCCCCC)CCCCCC.O=S(=O)([N-]S(=O)(=O)C(F)(F)F)C(F)(F)F
1.13

* * *

Consider the following compounds; for each one, report its activity coefficient.
assay: activity coefficient (dimensionless); of the first substance listed, at infinite dilution; xn = mol fraction of the nth substance listed; details: 313.15 K; 101 kPa; Liquid; Chromatography; x1 = 0
Answers are plain numbers.

Some solved cases for reference:
- C=CCCC [1-pentene] + CCCCCCCCCCCCCC[P+](CCCCCC)(CCCCCC)CCCCCC.O=S(=O)([N-]S(=O)(=O)C(F)(F)F)C(F)(F)F: 0.806
- CC(C)=O [acetone] + CCCCCCCCCCCCCC[P+](CCCCCC)(CCCCCC)CCCCCC.O=S(=O)([N-]S(=O)(=O)C(F)(F)F)C(F)(F)F: 0.297
- CCCCCC [hexane] + CCCCCCCCCCCCCC[P+](CCCCCC)(CCCCCC)CCCCCC.O=S(=O)([N-]S(=O)(=O)C(F)(F)F)C(F)(F)F: 1.1
- C#CCCCCC [1-heptyne] + CCCCCCCCCCCCCC[P+](CCCCCC)(CCCCCC)CCCCCC.O=S(=O)([N-]S(=O)(=O)C(F)(F)F)C(F)(F)F: 0.726

For the 5 compounds below, give their activity coefficient values.
1. C=CCCCC [hex-1-ene] + CCCCCCCCCCCCCC[P+](CCCCCC)(CCCCCC)CCCCCC.O=S(=O)([N-]S(=O)(=O)C(F)(F)F)C(F)(F)F
2. CCCCCCCC [octane] + CCCCCCCCCCCCCC[P+](CCCCCC)(CCCCCC)CCCCCC.O=S(=O)([N-]S(=O)(=O)C(F)(F)F)C(F)(F)F
3. c1ccccc1 [benzene] + CCCCCCCCCCCCCC[P+](CCCCCC)(CCCCCC)CCCCCC.O=S(=O)([N-]S(=O)(=O)C(F)(F)F)C(F)(F)F
4. C#CCCCCCCC [1-nonyne] + CCCCCCCCCCCCCC[P+](CCCCCC)(CCCCCC)CCCCCC.O=S(=O)([N-]S(=O)(=O)C(F)(F)F)C(F)(F)F
5. CCCO [propan-1-ol] + CCCCCCCCCCCCCC[P+](CCCCCC)(CCCCCC)CCCCCC.O=S(=O)([N-]S(=O)(=O)C(F)(F)F)C(F)(F)F

1. 0.907
2. 1.4
3. 0.391
4. 0.853
5. 1.28

For each of the compounds below, note its activity coefficient.
1. C#CCCCC [1-hexyne] + CCCCCCCCCCCCCC[P+](CCCCCC)(CCCCCC)CCCCCC.O=S(=O)([N-]S(=O)(=O)C(F)(F)F)C(F)(F)F
2. CCCCC [pentane] + CCCCCCCCCCCCCC[P+](CCCCCC)(CCCCCC)CCCCCC.O=S(=O)([N-]S(=O)(=O)C(F)(F)F)C(F)(F)F
3. C1CCCCCCC1 [cyclooctane] + CCCCCCCCCCCCCC[P+](CCCCCC)(CCCCCC)CCCCCC.O=S(=O)([N-]S(=O)(=O)C(F)(F)F)C(F)(F)F
4. C#CCCC [1-pentyne] + CCCCCCCCCCCCCC[P+](CCCCCC)(CCCCCC)CCCCCC.O=S(=O)([N-]S(=O)(=O)C(F)(F)F)C(F)(F)F
5. C#CCCCCCC [1-octyne] + CCCCCCCCCCCCCC[P+](CCCCCC)(CCCCCC)CCCCCC.O=S(=O)([N-]S(=O)(=O)C(F)(F)F)C(F)(F)F
6. C1CCCC1 [cyclopentane] + CCCCCCCCCCCCCC[P+](CCCCCC)(CCCCCC)CCCCCC.O=S(=O)([N-]S(=O)(=O)C(F)(F)F)C(F)(F)F
7. Cc1ccccc1 [toluene] + CCCCCCCCCCCCCC[P+](CCCCCC)(CCCCCC)CCCCCC.O=S(=O)([N-]S(=O)(=O)C(F)(F)F)C(F)(F)F

1. 0.693
2. 0.96
3. 0.963
4. 0.613
5. 0.836
6. 0.687
7. 0.452

* * *

Can you tell me activity coefficient for the items I'm about to list?
test: activity coefficient (dimensionless); of the first substance listed, at infinite dilution; xn = mol fraction of the nth substance listed; settings: 353.15 K; 101 kPa; Liquid; Chromatography; x1 = 0

Look over these answered cases.
- CCCCCC [hexane] + CCCCCCCCCCCCCC[P+](CCCCCC)(CCCCCC)CCCCCC.O=S(=O)([N-]S(=O)(=O)C(F)(F)F)C(F)(F)F: 1.12
- CO [methanol] + CCCCCCCCCCCCCC[P+](CCCCCC)(CCCCCC)CCCCCC.O=S(=O)([N-]S(=O)(=O)C(F)(F)F)C(F)(F)F: 0.922
- CCC(C)=O [butanone] + CCCCCCCCCCCCCC[P+](CCCCCC)(CCCCCC)CCCCCC.O=S(=O)([N-]S(=O)(=O)C(F)(F)F)C(F)(F)F: 0.324
- C#CCCCCCCC [1-nonyne] + CCCCCCCCCCCCCC[P+](CCCCCC)(CCCCCC)CCCCCC.O=S(=O)([N-]S(=O)(=O)C(F)(F)F)C(F)(F)F: 0.956
- CCCCC [pentane] + CCCCCCCCCCCCCC[P+](CCCCCC)(CCCCCC)CCCCCC.O=S(=O)([N-]S(=O)(=O)C(F)(F)F)C(F)(F)F: 0.99
- C1CCCCCC1 [cycloheptane] + CCCCCCCCCCCCCC[P+](CCCCCC)(CCCCCC)CCCCCC.O=S(=O)([N-]S(=O)(=O)C(F)(F)F)C(F)(F)F: 0.891
- C#CCCCCC [1-heptyne] + CCCCCCCCCCCCCC[P+](CCCCCC)(CCCCCC)CCCCCC.O=S(=O)([N-]S(=O)(=O)C(F)(F)F)C(F)(F)F: 0.762
- c1ccccc1 [benzene] + CCCCCCCCCCCCCC[P+](CCCCCC)(CCCCCC)CCCCCC.O=S(=O)([N-]S(=O)(=O)C(F)(F)F)C(F)(F)F: 0.417

State recorded activity coefficient for all listed molecules.
1. Cc1ccccc1 [toluene] + CCCCCCCCCCCCCC[P+](CCCCCC)(CCCCCC)CCCCCC.O=S(=O)([N-]S(=O)(=O)C(F)(F)F)C(F)(F)F
2. CCCCCCCC [octane] + CCCCCCCCCCCCCC[P+](CCCCCC)(CCCCCC)CCCCCC.O=S(=O)([N-]S(=O)(=O)C(F)(F)F)C(F)(F)F
3. C#CCCCC [1-hexyne] + CCCCCCCCCCCCCC[P+](CCCCCC)(CCCCCC)CCCCCC.O=S(=O)([N-]S(=O)(=O)C(F)(F)F)C(F)(F)F
4. CC(C)=O [acetone] + CCCCCCCCCCCCCC[P+](CCCCCC)(CCCCCC)CCCCCC.O=S(=O)([N-]S(=O)(=O)C(F)(F)F)C(F)(F)F
5. CCCO [propan-1-ol] + CCCCCCCCCCCCCC[P+](CCCCCC)(CCCCCC)CCCCCC.O=S(=O)([N-]S(=O)(=O)C(F)(F)F)C(F)(F)F
6. C1CCCCC1 [cyclohexane] + CCCCCCCCCCCCCC[P+](CCCCCC)(CCCCCC)CCCCCC.O=S(=O)([N-]S(=O)(=O)C(F)(F)F)C(F)(F)F

1. 0.486
2. 1.46
3. 0.72
4. 0.332
5. 1.07
6. 0.798

Please supply activity coefficient for each of the following items, keeping them in order.
1. CCCCCCCCC [nonane] + CCCCCCCCCCCCCC[P+](CCCCCC)(CCCCCC)CCCCCC.O=S(=O)([N-]S(=O)(=O)C(F)(F)F)C(F)(F)F
2. C=CCCCCC [1-heptene] + CCCCCCCCCCCCCC[P+](CCCCCC)(CCCCCC)CCCCCC.O=S(=O)([N-]S(=O)(=O)C(F)(F)F)C(F)(F)F

1. 1.77
2. 1.1
